All values here come from PubChem BioAssay (NCI).

# Tested on: OVCAR-3 ovarian
# test: NCI-60 one-dose screen, 48 h
# condition.notes: 10 µM unless noted
This is part of a sample that, as a whole, favours compounds with a hit. Of some 83,000 tested, about 20% had one in any assay. Active and inactive are the calls of the source. Rule for the calls: active = growth percent below 10; inactive = the rest.
Respond with a class label; see active, inactive

Illustrative cases are given below, each with its answer.
molecule=C/C=C(/C)C(=O)O[C@H]1CC[C@@]2(C)[C@@H]3CC[C@H]4[C@]5(O)C[C@H](O)[C@@]6(O)[C@@H](CN7C[C@@H](C)CC[C@H]7[C@@]6(C)O)[C@]5(O)C[C@@]42O[C@@]13O target_or_test_system="OVCAR-3 ovarian" assigned_label=inactive
molecule=C/C(=C\c1ccn(-c2ccc(N)c(C(F)(F)F)c2)n1)[C@@H]1C[C@@H]2O[C@]2(C)CCC[C@H](C)[C@H](O)[C@@H](C)C(=O)C(C)(C)[C@@H](O)CC(=O)O1 target_or_test_system="OVCAR-3 ovarian" assigned_label=active

Attention now turns to another entry.
[in] Hey, what did the test say about COC(=O)C12C3C4C1C1C2C3C41NC(=O)c1csc([C@@H](C[C@H](C(C)C)N(C)C(=O)[C@@H](NC(=O)[C@H]2CCCCN2C)C2CC2)OC(C)=O)n1 (stereo partly drawn) ?
[out] active
